# tgt: mTOR/GbL/Raptor (mTORC1) (Homo sapiens)
# measurement protocol: mTOR/GbL/Raptor (mTORC1) ELISA assay
# protocol conditions: phosphorylation of 4E-BP1; 0.2 nM mTORC1, 10 μM ATP; read-out: IC50 in this assay (mTORC1 ELISA)
pIC50: −log10 of the molar value.
outcome measure: pIC50

Use the examples below as a reference point.
CCOc1ncc(-c2ccc3c(c2)CN(c2ncnc4c2CC(C)(C)CC4)CCO3)cc1NS(C)(=O)=O :: 7.30 to 8.00
Cc1nc2ccc(-c3ccc4c(c3)CN(c3ncnc(C)c3CC(C)C)CCO4)cc2[nH]1 :: 6.00 to 6.60
Cc1nc2ccc(-c3ccc4c(c3)CN(c3ccnc5cc(C#N)ccc35)CCO4)cc2[nH]1 :: ≤ 5.70

Hello, I would appreciate it if you could give pIC50 for each entry below.
1. CC1(C)CCc2ncnc(N3CCOc4ccc(-c5cnc(Cl)c(CS(C)(=O)=O)c5)cc4C3)c2C1
2. CC1(C)CCc2ncnc(N3CCOc4ccc(-c5cnc6nccnc6c5)cc4C3)c2C1
3. Cc1nc2ccc(-c3ccc4c(c3)CN(c3ccnc(Nc5ccccc5)n3)CCO4)cc2[nH]1
4. Cc1nc2ccc(-c3ccc4c(c3)CN(c3ncccn3)CCO4)cc2[nH]1

["5.70 to 6.00", "6.00 to 6.60", "6.60 to 7.30", "5.70 to 6.00"]

Field request: pIC50 | item: Cc1nc2ccc(-c3ccc4c(c3)CN(c3ncnc5c3CSC5)CCO4)cc2[nH]1
6.00 to 6.60

* * *

Observed IC50 for UniProt:P42336, reported per entry below.
Sequence (P42336 whole entry, species assumed): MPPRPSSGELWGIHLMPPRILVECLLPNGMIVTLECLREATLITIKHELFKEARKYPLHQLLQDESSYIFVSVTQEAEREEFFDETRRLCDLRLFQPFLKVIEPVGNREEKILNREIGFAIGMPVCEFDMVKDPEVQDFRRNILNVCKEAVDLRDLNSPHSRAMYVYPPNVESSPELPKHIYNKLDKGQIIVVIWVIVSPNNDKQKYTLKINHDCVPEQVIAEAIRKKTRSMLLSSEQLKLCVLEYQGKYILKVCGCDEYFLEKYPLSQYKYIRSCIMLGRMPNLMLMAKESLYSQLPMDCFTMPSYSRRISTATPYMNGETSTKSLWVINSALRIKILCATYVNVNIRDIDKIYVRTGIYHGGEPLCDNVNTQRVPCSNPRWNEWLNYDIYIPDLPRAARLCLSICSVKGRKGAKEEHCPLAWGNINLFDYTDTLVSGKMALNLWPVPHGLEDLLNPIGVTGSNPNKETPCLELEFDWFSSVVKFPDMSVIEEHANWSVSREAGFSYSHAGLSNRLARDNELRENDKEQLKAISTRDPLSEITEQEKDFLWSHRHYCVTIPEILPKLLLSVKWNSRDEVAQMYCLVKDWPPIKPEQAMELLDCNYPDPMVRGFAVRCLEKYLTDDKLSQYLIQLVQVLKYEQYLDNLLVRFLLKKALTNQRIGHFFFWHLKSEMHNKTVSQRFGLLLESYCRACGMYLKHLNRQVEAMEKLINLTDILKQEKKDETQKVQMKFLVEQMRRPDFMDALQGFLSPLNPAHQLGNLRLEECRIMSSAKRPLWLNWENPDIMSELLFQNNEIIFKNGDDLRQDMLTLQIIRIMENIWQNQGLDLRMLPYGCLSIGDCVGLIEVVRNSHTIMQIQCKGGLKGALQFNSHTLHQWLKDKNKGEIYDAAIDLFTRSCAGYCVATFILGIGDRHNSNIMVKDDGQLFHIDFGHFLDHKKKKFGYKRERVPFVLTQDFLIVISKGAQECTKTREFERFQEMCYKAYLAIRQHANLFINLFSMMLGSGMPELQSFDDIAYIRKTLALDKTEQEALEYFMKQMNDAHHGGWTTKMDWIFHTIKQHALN
Sequence (P27986 whole entry partner, species assumed): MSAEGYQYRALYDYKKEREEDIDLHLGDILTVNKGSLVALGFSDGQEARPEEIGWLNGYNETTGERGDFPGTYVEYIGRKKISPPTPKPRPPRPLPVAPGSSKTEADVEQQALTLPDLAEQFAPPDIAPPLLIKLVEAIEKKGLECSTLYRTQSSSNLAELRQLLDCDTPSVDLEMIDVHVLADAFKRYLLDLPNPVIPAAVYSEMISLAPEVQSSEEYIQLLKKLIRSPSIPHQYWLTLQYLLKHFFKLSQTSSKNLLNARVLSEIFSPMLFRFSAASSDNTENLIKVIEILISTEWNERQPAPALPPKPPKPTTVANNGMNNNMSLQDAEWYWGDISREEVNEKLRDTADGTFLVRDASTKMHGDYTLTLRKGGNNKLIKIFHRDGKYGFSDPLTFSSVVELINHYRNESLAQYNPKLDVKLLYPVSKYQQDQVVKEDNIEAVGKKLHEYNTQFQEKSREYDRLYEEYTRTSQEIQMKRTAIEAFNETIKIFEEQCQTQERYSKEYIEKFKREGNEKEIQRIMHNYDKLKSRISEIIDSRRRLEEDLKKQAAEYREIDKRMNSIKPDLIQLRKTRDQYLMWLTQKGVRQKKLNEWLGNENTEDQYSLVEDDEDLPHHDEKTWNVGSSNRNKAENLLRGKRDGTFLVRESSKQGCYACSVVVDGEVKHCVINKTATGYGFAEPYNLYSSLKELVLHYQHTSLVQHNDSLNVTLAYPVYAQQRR

Use the examples below as a reference point.
Cc1nc2ccc(-c3ccc4c(c3)CN(c3ncccn3)CCO4)cc2[nH]1 [Example 106] :: 1000 to 2000 nM
COc1cc(-c2ccc3c(c2)CN(c2nc(CN(C)C)nc4c2CC(C)(C)CC4)CCO3)ccc1Cl [Example 326] :: 1000 to 2000 nM
OCc1ncc(-c2ccc(-c3ccc4c(c3)CN(c3ncnc5cccnc35)CCO4)cc2)[nH]1 [Example 212] :: ≥ 2000 nM

We next turn to a different molecule, shown below.
Item: CC1(C)CCc2ncnc(N3CCOc4ccc(-c5cnc6c(c5)OCC(=O)N6)cc4C3)c2C1 [Example 572] Test system: UniProt:P42336 Read-out: IC50 Value: ?
1000 to 2000 nM

* * *

# tgt: mTOR/GbL/Raptor (mTORC1) (Homo sapiens, UniProt P42345)
# measurement protocol: mTOR/GbL/Raptor (mTORC1) ELISA assay
# protocol conditions: phosphorylation of 4E-BP1; 0.2 nM mTORC1, 10 μM ATP; read-out: IC50 in this assay (mTORC1 ELISA)
pIC50: −log10 of the molar value.
outcome measure: pIC50

Use the examples below as a reference point.
COc1ccc2c(N3CCOc4ccc(-c5cnc(N)c([S+]([O-])C[C@@H](C)CO)c5)cc4C3)ncnc2c1 (stereo partly drawn) :: 6.00 to 6.60
Nc1nc2ccc(-c3ccc4c(c3)CN(c3ccnc5ccccc35)CCO4)cc2[nH]1 :: 6.00 to 6.60
Cc1nc2ncc(-c3ccc4c(c3)CN(c3nc(CNCCF)nc5c3CC(C)(C)CC5)CCO4)cc2[nH]1 :: ≥ 8.00
Cc1nc2ccc(-c3ccc4c(c3)CN(c3nc(CO)nc(C)c3C(C)C)CCO4)cc2[nH]1 :: ≥ 8.00
Cc1nc2ncc(-c3ccc4c(c3)CN(c3nc(CNCC(C)C)nc5c3CC(C)(C)CC5)CCO4)cc2[nH]1 :: 7.30 to 8.00
CC1(C)CCc2ncnc(N3CCOc4ccc(-c5cnc(N)c(S(=O)(=O)NCC(O)CO)c5)cc4C3)c2C1 (stereo not drawn) :: ≥ 8.00
CC1(C)CCc2ncnc(N3CCOc4ccc(-c5cnc(C#N)c(NS(C)(=O)=O)c5)cc4C3)c2C1 :: 6.60 to 7.30
CC1(C)CCc2ncnc(N3CCOc4ccc(-c5cnc(N6CC[C@H](N)C6)c(S(=O)(=O)N6CC[C@H](N)C6)c5)cc4C3)c2C1 :: 6.00 to 6.60
Cc1nc(C)c(C(C)C)c(N2CCOc3ccc(-c4cnc5nc(C)[nH]c5c4)cc3C2)n1 :: ≥ 8.00
COC(=O)Nc1nc2ccc(-c3ccc4c(c3)CN(c3ncnc5ccccc35)CCO4)cc2[nH]1 :: 6.00 to 6.60

Hello, I would appreciate it if you could give pIC50 for each entry below.
1. CCNc1ncnc(N2CCOc3ccc(-c4cnc5nc(C)[nH]c5c4)cc3C2)c1C
2. COCc1nc2c(c(N3CCOc4ccc(-c5cnc6[nH]c(C)nc6c5)cc4C3)n1)CC(C)(C)CC2
3. Cc1nc2ncc(-c3ccc4c(c3)CN(c3ncnc5c3CCC(C)C5)CCO4)cc2[nH]1 (stereo not drawn)

1. 6.00 to 6.60
2. ≥ 8.00
3. 7.30 to 8.00

Hello, I would appreciate it if you could give pIC50 for each entry below.
1. Cc1c(NCCC2CCCN2C)ncnc1N1CCOc2ccc(-c3cnc4nc(C5CC5)[nH]c4c3)cc2C1 (stereo not drawn)
2. CC1(C)CCc2ncnc(N3CCOc4ccc(-c5ccc6[nH]c(C(F)F)nc6c5)cc4C3)c2C1
3. Cc1nc2ccc(-c3ccc4c(c3)CN(c3ncnc(C)c3C)CCO4)cc2[nH]1
4. CC1(C)CCc2ncnc(N3CCOc4ccc(-c5cnc(N)c(S(=O)(=O)N6C[C@@H]7C[C@H]6CN7)c5)cc4C3)c2C1
5. c1ccc2c(N3CCOc4ccc(-c5ccc6c(c5)CCO6)cc4C3)ccnc2c1
6. Cc1ncnc(N2CCOc3ccc(-c4ccc(-c5ncc[nH]5)cc4)cc3C2)c1Cc1ccc(F)cc1

1. 5.70 to 6.00
2. ≥ 8.00
3. 5.70 to 6.00
4. ≥ 8.00
5. 5.70 to 6.00
6. ≥ 8.00

Hello, I would appreciate it if you could give pIC50 for each entry below.
1. COC(=O)Nc1nc2ccc(-c3ccc4c(c3)CN(c3ncnc(C)c3Cc3ccc(F)cc3)CCO4)cc2[nH]1
2. Cc1nc(Nc2ccccc2)c(C)c(N2CCOc3ccc(-c4cnc5nc[nH]c5c4)cc3C2)n1
3. CC1(C)CCc2ncnc(N3CCOc4ccc(-c5cnc6c(c5)OCC(=O)N6)cc4C3)c2C1
4. CCNCc1nc2c(c(N3CCOc4ccc(-c5ccc6nc(C)[nH]c6c5)cc4C3)n1)CC(C)(C)CC2
5. CC[C@H]1CCc2c(ncnc2N2CCOc3ccc(-c4cnc(N)c(S(=O)(=O)N5CC[C@@H](N)C5)c4)cc3C2)C1
6. CC1(C)CCc2ncnc(N3CCOc4ccc(-c5cnc(N)c(S(=O)(=O)N6CC(O)C6)c5)cc4C3)c2C1

7.30 to 8.00
7.30 to 8.00
≤ 5.70
≥ 8.00
7.30 to 8.00
7.30 to 8.00

Hello, I would appreciate it if you could give pIC50 for each entry below.
1. COC(=O)Nc1nc2ccc(-c3ccc4c(c3)CN(c3ncnc5ccc(OC)cc35)CCO4)cc2[nH]1
2. CCN(C)Cc1nc2c(c(N3CCOc4ccc(-c5cnc6nc(C)[nH]c6c5)cc4C3)n1)CC(C)(C)CC2
3. COc1cncc(-c2ccc3c(c2)CN(c2ncnc4c2CC(C)(C)CC4)CCO3)c1

["6.00 to 6.60", "≥ 8.00", "6.00 to 6.60"]

Hello, I would appreciate it if you could give pIC50 for each entry below.
1. CC1(C)CCc2ncnc(N3CCOc4ccc(-c5cnc(N)c(S(=O)(=O)N6CCCC(N)C6)c5)cc4C3)c2C1 (stereo not drawn)
2. COc1ccc2c(N3CCOc4ccc(-c5ccc(N)cc5)cc4C3)nc(C)nc2c1

1: 7.30 to 8.00; 2: 6.00 to 6.60

* * *

Can you tell me pIC50 for the items I'm about to list?
# tgt: mTOR/GbL/Raptor (mTORC1) (Homo sapiens)
# measurement protocol: mTOR/GbL/Raptor (mTORC1) ELISA assay
# protocol conditions: phosphorylation of 4E-BP1; 0.2 nM mTORC1, 10 μM ATP; read-out: IC50 in this assay (mTORC1 ELISA)
pIC50: −log10 of the molar value.

Use the examples below as a reference point.
CCNc1nc2ccc(-c3ccc4c(c3)CN(c3cc(C)nc5ccccc35)CCO4)cc2[nH]1 :: 6.60 to 7.30
Cc1nc2ncc(-c3ccc4c(c3)CN(c3nc(CNC5CCCC5)nc5c3CC(C)(C)CC5)CCO4)cc2[nH]1 :: ≥ 8.00

Hello, I would appreciate it if you could give pIC50 for each entry below.
1. COc1ccc2c(N3CCOc4ccc(-c5ccc6ncsc6c5)cc4C3)nc(C)nc2c1
2. Cc1nc2ncc(-c3ccc4c(c3)CN(c3nc(CNC5CC5)nc5c3CC(C)(C)CC5)CCO4)cc2[nH]1
3. Cc1nc2cc(-c3ccc4c(c3)CN(c3nc(CN(C)C)nc(C)c3Cl)CCO4)ccc2[nH]1
4. COc1ccc2c(N3CCOc4ccc(-c5ccc6nc[nH]c6c5)cc4C3)nc(C)nc2c1
5. Cc1nc2ncc(-c3ccc4c(c3)CN(c3nc(CN5CCC(F)(F)C5)nc5c3CC(C)(C)CC5)CCO4)cc2[nH]1
6. Cc1nc2cc(-c3ccc4c(c3)CN(c3nc(CN(C)C)nc5c3CC(C)(C)CC5)CCO4)c(F)cc2[nH]1
7. CC1(C)CCc2ncnc(N3CCOc4ccc(-c5cnc(N)c(S(=O)(=O)NCCN)c5)cc4C3)c2C1
8. Cc1cccc(Cl)c1S(=O)(=O)Nc1cc(-c2ccc3c(c2)CN(c2ncnc4c2CC(C)(C)CC4)CCO3)cnc1Cl

≤ 5.70
≥ 8.00
≤ 5.70
6.00 to 6.60
7.30 to 8.00
6.00 to 6.60
≥ 8.00
6.00 to 6.60
